TARGET_SYSTEM: PARP4 WGR-CAT (human) (UniProt Q9UKK3)
Sequence: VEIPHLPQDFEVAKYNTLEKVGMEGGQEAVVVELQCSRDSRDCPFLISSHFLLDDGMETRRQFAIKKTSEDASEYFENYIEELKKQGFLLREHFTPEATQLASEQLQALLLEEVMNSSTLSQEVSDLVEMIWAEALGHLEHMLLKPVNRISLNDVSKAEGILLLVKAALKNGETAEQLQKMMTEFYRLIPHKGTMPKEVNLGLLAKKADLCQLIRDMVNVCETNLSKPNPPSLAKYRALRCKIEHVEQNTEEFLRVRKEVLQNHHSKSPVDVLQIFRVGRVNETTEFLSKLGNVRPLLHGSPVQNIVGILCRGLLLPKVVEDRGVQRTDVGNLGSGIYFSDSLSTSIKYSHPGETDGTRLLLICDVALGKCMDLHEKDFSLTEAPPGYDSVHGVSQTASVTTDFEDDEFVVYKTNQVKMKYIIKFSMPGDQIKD
PROCEDURE_TEXT: FP
PARTICULARS: FP: 50 mM Tris pH 7.5, 50 mM NaCl, 1 mM MgCl2, 0.05% NP40, 2 mM DTT, 5% glycerol, 25 ug/ml BSA, room temp 30 min; EMSA: 50 mM Tris pH 7.5, 50 mM NaCl, 4% …
RECORDED_ENDPOINT: Kd (µM)
Answer format: numeric, µM implied, no suffix.

Prompt: Could you tell me which Kd is on file for GGCUGGCUUUAGCUCAGCGGUUACUUCGCGUGUCAUCAAACCACCUCUCUGGGUUGUUCGAGACCCGCGGGCGCUCUCCAGCCCUCUU [vtRNA1-3] ?
Response: 93

Data credit: paper PMC12212138
